TESTED_SYSTEM: AURKB (MV4-11^AURKB-HiBiT cells) (Homo sapiens)
Construct: expressed in transfected cells; host or cells: MV4-11, lentiviral transduction (pRRL-PGK vector)
Sequence (Q96GD4 1-345 isoform Q96GD4-5): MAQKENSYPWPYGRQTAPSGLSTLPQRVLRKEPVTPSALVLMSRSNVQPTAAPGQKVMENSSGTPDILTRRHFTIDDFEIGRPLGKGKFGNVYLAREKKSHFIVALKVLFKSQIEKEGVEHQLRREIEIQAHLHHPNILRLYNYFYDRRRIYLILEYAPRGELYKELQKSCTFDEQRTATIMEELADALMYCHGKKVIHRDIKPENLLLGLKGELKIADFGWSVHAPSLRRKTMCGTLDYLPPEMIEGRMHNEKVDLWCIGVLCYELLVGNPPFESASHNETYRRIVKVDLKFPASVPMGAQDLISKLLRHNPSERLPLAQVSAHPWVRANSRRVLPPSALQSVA
METHOD: HiBiT assay, AURKB degradation
Format: cell-based
CONDITION_SET: 6 h treatment
PROPERTY_NAME: Dmax (maximal degradation) AURKB

MOLECULE	REPORTED_RESULT
Cc1ncsc1-c1ccc(CNC(=O)[C@@H]2C[C@@H](O)CN2C(=O)[C@@H](NC(=O)CCC(=O)NCCCNC(=O)CCC(=O)N2CCN(c3ccc(Nc4nc(NC5CCCCC5)c5nc[nH]c5n4)cc3)CC2)C(C)(C)C)cc1 [Compound 56]	29.10%
Cc1ncsc1-c1ccc(CNC(=O)[C@@H]2C[C@@H](O)CN2C(=O)[C@@H](NC(=O)CCC(=O)NCCNC(=O)CCC(=O)N2CCN(c3ccc(Nc4nc(NC5CCCCC5)c5nc[nH]c5n4)cc3)CC2)C(C)(C)C)cc1 [Compound 55]	inactive
COc1cc(N2CCC(OCC(=O)NCCNc3cccc4c3C(=O)N(C3CCC(=O)NC3=O)C4=O)CC2)ccc1Nc1nc(Nc2ccccc2S(=O)(=O)C(C)C)c2nc[nH]c2n1 (stereo not drawn) [Compound 34]	inactive
